test name: Pharmacokinetic experiment in mice
Format: in vivo
test context: male, mouse; ICR mice, single oral administration (PO), 10 mg/kg, plasma
Source text: The purpose of this trial is to study the pharmacokinetic behavior of some compounds of the present invention, and the administration method is: Single oral administration (PO) to ICR mice. The compounds used in this trial are from the compounds in the specific examples of the present invention and the listed positive compounds. ICR mice male N=9 original source: Shanghai Sippr-Bk Lab Animal Co., Ltd. […]
Exercise: for every item that follows, state its recorded log10(Cmax).
Use the decimal logarithm of Cmax (ng/mL).

Task item: Specify measured log10(Cmax) for CN1CCC(C#Cc2nn3c4cc(ncc24)Nc2ccnc(n2)-c2cnn(C)c2OCC2(CCCCC2)C3)CC1 [Example 3] .
Reply: 2.49

Task item: Specify measured log10(Cmax) for Cn1ncc2c1OCC1(CCCCC1)Cn1nc(N3CC[C@H](CS(=O)(=O)C4CC4)C3)c3cnc(cc31)Nc1ccnc-2n1 [Example 41] .
Reply: 3.28

Task item: Specify measured log10(Cmax) for Cn1ncc2c1OCC1(CCCC1)Cn1nc(N3CC[C@@H](C(C)(C)O)C3)c3cnc(cc31)Nc1ccnc-2n1 [Example 13] .
Reply: 3.19

Task item: Specify measured log10(Cmax) for Cn1ncc2c1OCC1(CCCC1)Cn1nc(N3CC[C@H](NC(=O)C4CC4)C3)c3cnc(cc31)Nc1ccnc-2n1 [Example 54] .
Reply: 2.61

Task item: Specify measured log10(Cmax) for Cn1ncc2c1OCC1(CCCC1)Cn1nc(N3CC[C@@H](O)C3)c3cnc(cc31)Nc1ccnc-2n1 [Example 22] .
Reply: 2.70

Task item: Specify measured log10(Cmax) for CCCS(=O)(=O)C[C@H]1CCN(c2nn3c4cc(ncc24)Nc2ccnc(n2)-c2cnn(C)c2OCC2(CCCC2)C3)C1 [Example 42] .
Reply: 3.03

Task item: Specify measured log10(Cmax) for Cn1ncc2c1OCC1(CCCC1)Cn1nc(N3CC[C@H](CS(=O)(=O)C4CC4)C3)c3cnc(cc31)Nc1ccnc-2n1 [Example 40] .
Reply: 3.13

Task item: Specify measured log10(Cmax) for CCS(=O)(=O)C[C@@H]1CCN(c2nn3c4cc(ncc24)Nc2ccnc(n2)-c2cnn(C)c2OCC2(CCCC2)C3)C1 [Example 29] .
Reply: 3.15

Task item: Specify measured log10(Cmax) for CC(C)S(=O)(=O)C[C@H]1CCN(c2nn3c4cc(ncc24)Nc2ccnc(n2)-c2cnn(C)c2OCC2(CCCC2)C3)C1 [Example 39] .
Reply: 3.19

Task item: Specify measured log10(Cmax) for COC(=O)N[C@@H]1CCN(c2nn3c4cc(ncc24)Nc2ccnc(n2)-c2cnn(C)c2OCC2(CCCC2)C3)C1 [Example 51] .
Reply: 2.78

Task item: Specify measured log10(Cmax) for CCS(=O)(=O)C[C@H]1CCN(c2nn3c4cc(ncc24)Nc2ccnc(n2)-c2cnn(C)c2OCC2(CCCCC2)C3)C1 [Example 37] .
Reply: 3.32

Task item: Specify measured log10(Cmax) for Cn1ncc2c1OCC1(CCCC1)Cn1nc(N3CC[C@H](CS(C)(=O)=O)C3)c3cnc(cc31)Nc1ccnc-2n1 [Example 34] .
Reply: 2.84

Task item: Specify measured log10(Cmax) for CCN1CCC(C#Cc2nn3c4cc(ncc24)Nc2ccnc(n2)-c2cnn(C)c2OCC2(CCCC2)C3)CC1 [Example 7] .
Reply: 2.29

Task item: Specify measured log10(Cmax) for CCS(=O)(=O)C[C@H]1CCN(c2nn3c4cc(ncc24)Nc2ccnc(n2)-c2cnn(C)c2OCC2(CCCC2)C3)C1 [Example 35] .
Reply: 3.18

Task item: Specify measured log10(Cmax) for CN1CCC(C#Cc2nn3c4cc(ncc24)Nc2ccnc(n2)-c2cnn(C)c2OCC2(CCCC2)C3)CC1 [Example 1] .
Reply: 1.95

Task item: Specify measured log10(Cmax) for C[C@H]1CCOc2c(cnn2C)-c2nccc(n2)Nc2cc3c(cn2)c(-c2ccc(CN4CCN(C)CC4)n2C)nn31 [Positive Compoun d, reference compound] .
Reply: 1.51

Task item: Specify measured log10(Cmax) for Cn1ncc2c1OCC1(CCCC1)Cn1nc(N3CC[C@H](CS(=O)(=O)C(F)(F)F)C3)c3cnc(cc31)Nc1ccnc-2n1 [Example 14] .
Reply: 2.95
